Every entry's value here was drawn from ChEMBL document CHEMBL2429820.

# Method Notes: Neurotoxicity in ip dosed KunMing mouse assessed as inability of animal to maintain equilibrium on rod for at least 1 min
# Type: toxicity, organism-based
# Protocol Conditions: in vivo
Cut-off 90 mg/kg on TD50 at 1 min: below means y, at or above means n.

Hi there! Is TD50 at 1 min for CCCCCOc1ccc2c(c1)SCc1n[nH]c(=O)n1-2 below 90 mg/kg, do you know?
y

And for CCCCOc1ccc2c(c1)SCc1n[nH]c(=O)n1-2 ?
n

And for CCCOc1ccc2c(c1)SCc1n[nH]c(=O)n1-2 ?
y

And for CCCCCOc1ccc2c(c1)SCC(=O)N2 ?
n

And for O=c1[nH]nc2n1-c1ccc(OCc3ccc(F)cc3)cc1SC2 ?
n

And for O=c1[nH]nc2n1-c1ccc(OCc3ccccc3)cc1SC2 ?
n

---

# Tested on: Mus musculus
# Method Notes: Anticonvulsant activity in ip dosed KunMing mouse assessed as protection against maximal electroshock-induced seizure after 0.5 hrs
# Assay type: functional
Endpoint Label: ED50 (mg/kg)
Please respond with the number in mg/kg and leave the unit unwritten.

Compound	ED50, mg/kg
CCCCCCOc1ccc2c(c1)SCc1n[nH]c(=O)n1-2	7.9
CCCOc1ccc2c(c1)SCc1n[nH]c(=O)n1-2	12.2
CCCCCOc1ccc2c(c1)SCc1n[nH]c(=O)n1-2	7.1
O=c1[nH]nc2n1-c1ccc(OCc3ccccc3)cc1SC2	12.2
CCCCOc1ccc2c(c1)SCc1n[nH]c(=O)n1-2	7.9
NC(=O)N1c2ccccc2C=Cc2ccccc21 [CARBAMAZEPINE]	11.8

Which value of ED50 has been reported for O=c1[nH]nc2n1-c1ccc(OCc3ccc(F)cc3)cc1SC2 in the records?
9.2

And for CCCCCOc1ccc2c(c1)SCC(=O)N2 ?
34.1

And for CCCCCCOc1ccc2c(c1)CCC(=O)N2 ?
24

---

# System: Mus musculus
# Method Notes: Anticonvulsant activity in KunMing mouse assessed as protection against maximal electroshock-induced seizure at 100 mg/kg, ip after 0.5 hrs
# Assay type: functional, organism-based
# Design: dose 100 mg/kg
Calls of active or inactive are those of the source. No cut-off for these calls is given here.
Hi there, use one of these labels in your reply, thanks! true (1) = active, false (0) = inactive

Worked examples follow.
O=c1[nH]nc2n1-c1ccc(OCc3ccccc3)cc1SC2 true (1)
CCCCCCCCCCCCOc1ccc2c(c1)SCc1n[nH]c(=O)n1-2 false (0)
Cc1ccc(COc2ccc3c(c2)SCc2n[nH]c(=O)n2-3)cc1 true (1)

Shift focus to the following entry.
For CCCCCCCCCCCCCCOc1ccc2c(c1)SCc1n[nH]c(=O)n1-2 , what call appears in the results of this test?
false (0)

---

# Test system: Mus musculus
# Method Notes: Anticonvulsant activity in KunMing mouse assessed as protection against maximal electroshock-induced seizure at 100 mg/kg, ip after 0.5 hrs
# Assay type: functional, organism-based
# Parameters: dose 100 mg/kg
Active and inactive are the calls of the source. The calls are words filed in the database; no cut-off is given here.
Hi there, use one of these labels in your reply, thanks! active, inactive

Worked examples follow.
O=c1[nH]nc2n1-c1ccc(OCc3ccccc3Cl)cc1SC2 inactive
N#Cc1ccccc1COc1ccc2c(c1)SCc1n[nH]c(=O)n1-2 inactive
CCCCCOc1ccc2c(c1)SCc1n[nH]c(=O)n1-2 active

For O=c1[nH]nc2n1-c1ccc(OCc3cccc(F)c3)cc1SC2 , what call appears in the results of this test?
active

And for O=c1[nH]nc2n1-c1ccc(OCc3ccccc3F)cc1SC2 ?
active

And for CCCCCCOc1ccc2c(c1)SCc1n[nH]c(=O)n1-2 ?
active

And for O=c1[nH]nc2n1-c1ccc(OCc3cccc(Cl)c3)cc1SC2 ?
active

And for CCCCOc1ccc2c(c1)SCc1n[nH]c(=O)n1-2 ?
active

---

# Tested on: Mus musculus
# Method Notes: Anticonvulsant activity in KunMing mouse assessed as protection against maximal electroshock-induced seizure at 100 mg/kg, ip after 0.5 hrs
# Format: functional, organism-based
# Set-up: dose 100 mg/kg
Active and inactive are the calls of the source. No cut-off for these calls is given here.
Hi there, use one of these labels in your reply, thanks! label 1 (active), label 0 (inactive)

Worked examples follow.
CCCCCCCCOc1ccc2c(c1)SCc1n[nH]c(=O)n1-2 label 0
O=c1[nH]nc2n1-c1ccc(OCc3ccc(F)cc3)cc1SC2 label 1
CCCOc1ccc2c(c1)SCc1n[nH]c(=O)n1-2 label 1

Shift focus to the following entry.
For CCOc1ccc2c(c1)SCc1n[nH]c(=O)n1-2 , what call appears in the results of this test?
label 1
